# System: UO-31
# testDetails: NCI tumour cell line growth inhibition, 48 h
Active and inactive are the calls of the source. Rule as the data show it: active = GI50 up to about 1.1 µM and inactive = higher.
endpointLabel: GI50

Worked examples follow.
O=C1c2cc3c(cc2CC12Cc1ccc4c(c1C2=O)CCC4)CCCC3 (stereo not given) | > 100 µM (inactive)
COc1ccc2[nH]cc(CCNC(C)=O)c2c1 | > 100 µM (inactive)
O=C1CC2(CCC(O)(c3ccc4ccccc4c3)C(C(=O)c3ccc4ccccc4c3)C2)C(=O)c2ccccc2N1 (stereo not given) | > 100 µM (inactive)
COC(=O)C1(Cc2ccccc2)Cc2ccccc2C1O (stereo not given) | 62.4 µM (inactive)
COc1cc(N)c2[nH]c3c(C)ccc(C)c3c2c1 | > 100 µM (inactive)
Fc1ccc(C(OCCN2CC3CC2CN3CCCc2ccccc2)c2ccc(F)cc2)cc1 (stereo not given) | 12.3 µM (inactive)
NC(=S)NNC(=S)NC(=O)c1ccco1 | > 10 µM (inactive)
Nc1ccc(Oc2ccc(C34CC5CC(C3)CC(c3ccc(Oc6ccc(N)cc6)cc3)(C5)C4)cc2)cc1 | 33 µM (inactive)

Quick one: GI50 for CSC(=S)CC(O)[C@@H]1CC2c3ccccc3C1c1ccccc12 (stereo not given in full) ? 11.7 µM (inactive)

Quick one: GI50 for CC(C(=O)n1ccnc1)N1c2ccccc2Sc2ccccc21 (stereo not given) ? 70.1 µM (inactive)

Quick one: GI50 for [O-][S+]1c2ccccc2N=C(c2ccc3ccccc3c2)CC1c1ccccc1F (stereo not given) ? > 100 µM (inactive)

Quick one: GI50 for O=C1OCC=C1COC1OC(CO)C(O)C(O)C1O (stereo not given) ? > 100 µM (inactive)

Quick one: GI50 for CCn1c(CCCc2nc3c(=O)n(C)c(=O)n(C)c3[nH]2)nc2c1c(=O)n(C)c(=O)n2C ? > 100 µM (inactive)

Quick one: GI50 for CCOC(=O)C1=C(O)C(=O)c2ccsc2C1=O ? > 100 µM (inactive)

Quick one: GI50 for CC1=NC(=Cc2ccc(Cl)cc2)C(=O)N1n1c(-c2ccccc2)nc2ccccc2c1=O ? 37.2 µM (inactive)

Quick one: GI50 for CCOC(=O)c1cn(-c2ccc([N+](=O)[O-])cc2)c(=S)n2c1nc1ccccc12 ? 1.83 µM (inactive)

Quick one: GI50 for COc1ccc(-c2cc(=O)c3c(OC)c(OC)c(OC)c(OC)c3o2)c(OC)c1 ? 20.6 µM (inactive)

Quick one: GI50 for CCN(CC)CCN1c2ccccc2Sc2ccc3ccccc3c21 ? 5.81 µM (inactive)

Quick one: GI50 for O=S1(=O)c2ccccc2N(O)C2=NCCN21 ? > 100 µM (inactive)

----------
# Test system: HOP-62
# testDetails: NCI tumour cell line growth inhibition, 48 h
Calls of active or inactive are those of the source. Cut-off read from the data, not from the text of the source: active = GI50 up to about 1.1 µM and inactive = higher.
One label from this list, please: TRUE for active, FALSE for inactive

CC1=N/C(=C\c2cccc([N+](=O)[O-])c2)C(=O)O1 | FALSE
COc1ccc2c(c1)-c1[nH]c3ccc(OC)cc3c1CC2 | FALSE
Cc1[nH]c2ccccc2c1C1=NO/C(=N\O)C(c2c(C)[nH]c3ccccc23)C1 (stereo not given) | FALSE
COC(=O)C1=C(C(=O)OC)C2(C)OC1C(=O)C21CC1 (stereo not given) | FALSE
COc1ccccc1OC(=O)/C=C/c1ccccc1 | FALSE

Record lookup: outcome of this test for Clc1ccc(CNc2nc3ccccc3nc2-c2cccs2)c(Cl)c1 ? FALSE

Record lookup: outcome of this test for Nc1nc(N)c2cc(Sc3cccc(C(F)(F)F)c3)ccc2n1 ? FALSE

Record lookup: outcome of this test for CC(C)=CCOc1cc(NC(=S)c2ccsc2C)ccc1Cl ? FALSE

Record lookup: outcome of this test for NC(=O)NC(=O)c1cnccn1 ? FALSE

Record lookup: outcome of this test for CCN(CC)CCC(=O)/C=C/c1ccccc1 ? FALSE

Record lookup: outcome of this test for c1c[nH]c(CN2CCN(Cc3ncc[nH]3)CC2)n1 ? FALSE

Record lookup: outcome of this test for C[N+]1(C)CN(c2ccccc2)C2(CCN(CCCC(=O)c3cccs3)CC2)C1=O ? FALSE

Record lookup: outcome of this test for Cc1c(Cc2ccccc2)n(COCCCO)c(=O)[nH]c1=O ? FALSE

Record lookup: outcome of this test for O=C(NS(=O)(=O)c1ccccc1)C(Cc1ccccc1)C(Cc1ccccc1)C(=O)NS(=O)(=O)c1ccccc1 (stereo not given) ? FALSE
